# System: Influenza A virus (A/udorn/1972(H3N2))
# Experimental Protocol: Inhibition of Influenza A/Udorn/72/H3N2 full length GST-tagged NS1A/FAM-double strand RNA-interaction at 50 uM after 1 hr by fluorescence polarization assay
Catalogue of inhibition values
Give a bare numeral; the unit % is implied.

Worked cases, answers included:
smiles_repr=c1ccc2nc(-c3ccc4c(c3)OCO4)c(-c3ccc4c(c3)OCO4)nc2c1 unit_of_measure=% numeric_readout=1.5
smiles_repr=c1coc(-c2nc3ccccc3nc2-c2ccco2)c1 unit_of_measure=% numeric_readout=7.3

I have this molecule here, COc1ccc(-c2nc3ccc(C(=O)O)cc3nc2-c2ccc(OC)cc2)cc1 , and I need its recorded inhibition.
4.5

Any idea what its inhibition is? The molecule is COc1ccc(-c2nc3ccc(OC)cc3nc2-c2ccc(OC)cc2)cc1
1.8

Please give the measured inhibition for this molecule: O=C(O)c1ccc2nc(-c3cccc(O)c3)c(-c3cccc(O)c3)nc2c1
28.7

Name the recorded inhibition for COc1ccc(CNC(=O)c2ccc3nc(-c4ccco4)c(-c4ccco4)nc3c2)cc1 .
44

Could you tell me which inhibition is on file for COc1ccc2nc(-c3ccccc3OC)c(-c3ccccc3OC)nc2c1 ?
4.4
